# credit: ChEMBL document CHEMBL3525939

# tested.on: OCT2 (SLC22A2) (Homo sapiens)
# Sequence (O15244 whole entry): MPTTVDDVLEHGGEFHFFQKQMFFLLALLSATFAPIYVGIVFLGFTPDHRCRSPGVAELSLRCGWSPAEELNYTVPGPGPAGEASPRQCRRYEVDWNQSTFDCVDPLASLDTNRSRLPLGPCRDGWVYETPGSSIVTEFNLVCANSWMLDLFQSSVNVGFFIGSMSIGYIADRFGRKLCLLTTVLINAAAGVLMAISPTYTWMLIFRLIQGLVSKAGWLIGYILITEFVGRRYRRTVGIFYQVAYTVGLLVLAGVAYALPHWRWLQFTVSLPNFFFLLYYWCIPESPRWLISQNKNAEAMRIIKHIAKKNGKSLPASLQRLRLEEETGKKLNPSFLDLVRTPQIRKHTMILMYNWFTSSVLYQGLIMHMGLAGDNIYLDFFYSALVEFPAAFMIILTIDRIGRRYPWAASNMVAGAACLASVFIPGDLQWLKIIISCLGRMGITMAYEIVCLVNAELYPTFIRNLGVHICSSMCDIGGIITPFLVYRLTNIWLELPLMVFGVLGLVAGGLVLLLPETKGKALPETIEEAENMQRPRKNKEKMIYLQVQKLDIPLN
# experiment: Drug uptake in human Oct2 expressed HEK293 cells at 10 nM at pH 7.4 at 37 degC after 1 min relative to mock cells
# Type: ADME, cell-based
# condition.notes: HEK293 cells expressing human Oct2, pH 7.4, read-out: FC
quantity.measured: uptake ratio at 1 min, 0.01 µM

> print(dat)
                           molecular.string               quantity.measured  test.result
1  C[N+]1(C)[C@@H]2C[C@@H](OC(=O)C(O)(c3cccs3)c3cccs3)C[C@@H]1[C@H]1O[C@H]12.[Br-]  uptake ratio at 1 min, 0.01 µM          8.5

---

# tested.on: Oct1 (Slc22a1) (Rattus norvegicus)
# Sequence (Q63089 whole entry): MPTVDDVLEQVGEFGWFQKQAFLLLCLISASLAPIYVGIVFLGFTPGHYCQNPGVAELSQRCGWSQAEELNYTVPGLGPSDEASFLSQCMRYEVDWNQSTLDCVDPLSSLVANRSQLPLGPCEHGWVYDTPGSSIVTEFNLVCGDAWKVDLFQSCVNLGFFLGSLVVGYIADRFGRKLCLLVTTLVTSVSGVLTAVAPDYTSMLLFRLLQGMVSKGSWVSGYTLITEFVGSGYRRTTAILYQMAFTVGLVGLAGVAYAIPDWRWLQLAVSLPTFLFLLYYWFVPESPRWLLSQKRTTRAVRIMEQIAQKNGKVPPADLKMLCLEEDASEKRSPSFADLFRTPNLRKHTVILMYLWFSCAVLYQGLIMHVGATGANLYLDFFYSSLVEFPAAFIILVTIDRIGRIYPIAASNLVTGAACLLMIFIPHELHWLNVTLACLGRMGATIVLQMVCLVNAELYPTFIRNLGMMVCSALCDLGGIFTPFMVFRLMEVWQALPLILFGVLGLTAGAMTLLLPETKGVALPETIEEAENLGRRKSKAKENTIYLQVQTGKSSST
# experiment: Drug uptake in rat Oct1 expressed HEK293 cells at 10 nM at pH 7.4 at 37 degC after 1 min relative to mock cells
# Type: ADME, cell-based
# condition.notes: HEK293 cells expressing rat Oct1, pH 7.4, read-out: FC
quantity.measured: uptake ratio at 1 min, 0.01 µM

> print(dat)
                           molecular.string  test.result
1  C[N+]1(C)[C@@H]2C[C@@H](OC(=O)C(O)(c3cccs3)c3cccs3)C[C@@H]1[C@H]1O[C@H]12.[Br-]          8.4

---

# tested.on: Solute carrier family 22 member 2 (Rattus norvegicus, UniProt Q9R0W2)
# Sequence (Q9R0W2 whole entry): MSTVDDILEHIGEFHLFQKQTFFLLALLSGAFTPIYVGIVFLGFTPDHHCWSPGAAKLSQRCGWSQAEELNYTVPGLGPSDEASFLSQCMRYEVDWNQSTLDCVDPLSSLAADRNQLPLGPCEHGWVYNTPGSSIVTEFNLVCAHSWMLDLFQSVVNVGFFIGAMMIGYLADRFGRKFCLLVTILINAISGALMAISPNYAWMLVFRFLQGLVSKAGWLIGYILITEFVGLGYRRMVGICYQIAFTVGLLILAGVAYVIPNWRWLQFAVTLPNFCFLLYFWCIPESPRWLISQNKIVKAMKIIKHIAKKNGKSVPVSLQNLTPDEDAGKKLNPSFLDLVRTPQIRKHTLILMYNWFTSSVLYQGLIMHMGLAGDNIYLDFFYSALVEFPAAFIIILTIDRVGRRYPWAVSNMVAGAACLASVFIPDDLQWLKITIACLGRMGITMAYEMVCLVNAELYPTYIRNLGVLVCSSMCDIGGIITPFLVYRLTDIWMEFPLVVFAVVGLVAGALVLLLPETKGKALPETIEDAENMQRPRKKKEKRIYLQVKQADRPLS
# experiment: Binding affinity to rat Oct2 assessed as transporter-mediated drug uptake
# Format: ADME
quantity.measured: Km

> print(dat)
          molecular.string                                 tested.on  test.result
1  C[n+]1ccc(-c2ccccc2)cc1  Solute carrier family 22 member 2 (Rattus norvegicus, UniProt Q9R0W2)        17 µM
